target: UniProtKB P29466; set-up: species or system Escherichia coli
Sequence (P29466 120-297 limits assumed): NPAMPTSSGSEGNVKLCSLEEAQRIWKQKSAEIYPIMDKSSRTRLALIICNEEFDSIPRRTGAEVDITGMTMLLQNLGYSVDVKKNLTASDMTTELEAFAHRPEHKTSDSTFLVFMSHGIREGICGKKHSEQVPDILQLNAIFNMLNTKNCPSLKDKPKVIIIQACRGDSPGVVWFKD
Sequence (P29466 317-404 limits assumed): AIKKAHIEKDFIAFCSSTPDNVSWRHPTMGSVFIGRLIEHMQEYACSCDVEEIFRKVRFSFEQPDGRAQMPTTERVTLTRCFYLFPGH
test readout: IC50

O=S(=O)([O-])CCS.[Na+] : Not Active
[Cl-].[Cl-].[Zn+2] [ZINC CHLORIDE] : Not Active
O=C1CCC(N2C(=O)c3ccccc3C2=O)C(=O)N1 (centres undefined) [THALIDOMIDE] : Not Active
CN1C(=O)COc2c(C(=O)NC3CN4CCC3CC4)cc(Cl)cc21 (centres undefined) : Not Active

I would be grateful if you could provide IC50 for each of the following entries.
1. O=C(O)Cc1ccccc1Nc1c(Cl)cccc1Cl
2. CC(C)Cc1ccc(C(C)C(=O)O)cc1 (centres undefined)
3. COc1ccc2c(c1)[C@]13CCCC[C@@H]1[C@H](C2)N(C)CC3
4. CC(=O)CC(c1ccccc1)c1c(O)c2ccccc2oc1=O (centres undefined)
5. CCCCOc1ccc(OCCCN2CCOCC2)cc1
6. CCCC(CCC)C(=O)O
7. C[C@](O)(CS(=O)(=O)c1ccc(F)cc1)C(=O)Nc1ccc(C#N)c(C(F)(F)F)c1 [(R)-BICALUTAMIDE]
8. COCCOC(=O)C1=C(C)NC(C)=C(C(=O)OC(C)C)C1c1cccc([N+](=O)[O-])c1 (centres undefined)

[out]
Not Active
Not Active
Not Active
Not Active
Not Active
Not Active
Not Active
Not Active

I would be grateful if you could provide IC50 for each of the following entries.
1. C[C@@H]1C[C@@H]([C@H](O)CC2CC(=O)NC(=O)C2)C(=O)[C@@H](C)C1 [CYCLOHEXIMIDE]
2. O=NN(CCCl)C(=O)NCCCl
3. CN(C)/N=N/c1[nH]cnc1C(N)=O
4. CC1(C)O[C@@H]2C[C@H]3[C@@H]4C[C@H](F)C5=CC(=O)C=C[C@]5(C)[C@@]4(F)[C@@H](O)C[C@]3(C)[C@]2(C(=O)CO)O1 [FLUOCINOLONE ACETONIDE]
5. O=C(c1ccc(OCCN2CCCCC2)cc1)c1c(-c2ccc(O)cc2)sc2cc(O)ccc12
6. CC(C)NCC(O)COc1cccc2ccccc12 (centres undefined)
7. [H]/N=C(/N)N[C@H]1[C@H](O)[C@@H](O)[C@H](O[C@@H]2O[C@@H](C)[C@](O)(C=O)[C@H]2O[C@@H]2O[C@@H](CO)[C@H](O)[C@@H](O)[C@@H]2NC)[C@@H](N/C(N)=N\[H])[C@@H]1O

[out]
Not Active
Not Active
Not Active
Not Active
Not Active
Not Active
Not Active

I would be grateful if you could provide IC50 for each of the following entries.
1. CCOC(=O)C(C)(C)Oc1ccc(Cl)cc1 [CLOFIBRATE]
2. Clc1ccc2c(c1)C(N1CCNCC1)=Nc1ccccc1O2
3. CC1(C)O[C@@H]2C[C@H]3[C@@H]4C[C@H](F)C5=CC(=O)CC[C@]5(C)[C@H]4[C@@H](O)C[C@]3(C)[C@]2(C(=O)CO)O1 [FLURANDRENOLIDE]
4. Cc1cc(C)nc(NS(=O)(=O)c2ccc(N)cc2)n1
5. CCn1cc(C(=O)O)c(=O)c2cc(F)c(N3CCN(C)CC3)cc21
6. CC(C)[C@H]1CC[C@H](C(=O)N[C@H](Cc2ccccc2)C(=O)O)CC1 [NATEGLINIDE]

[out]
Not Active
Not Active
Not Active
Not Active
Not Active
Not Active

I would be grateful if you could provide IC50 for each of the following entries.
1. C[C@]12CC[C@@H]3c4ccc(O)cc4CC[C@H]3[C@@H]1CC[C@@H]2O
2. NC(=O)c1cnccn1 [PYRAZINAMIDE]
3. Cc1nccn1CC1CCc2c(c3ccccc3n2C)C1=O (centres undefined)
4. Cc1cccc(Nc2ccncc2S(=O)(=O)NC(=O)NC(C)C)c1 [TORSEMIDE]

[out]
Not Active
Not Active
Not Active
Not Active

----------
target: Adenosine receptor A3 (Homo sapiens, UniProt P0DMS8); type: cell membranes, CHO-K1, Membrane; conditions: read-out: Ki; further: in other assays of this panel Not Active means under 50% inhibition at 10 µM;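 further: radioligand binding assay with AB-MECA serving as the labeled ligand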
Sequence (P0DMS8 whole entry): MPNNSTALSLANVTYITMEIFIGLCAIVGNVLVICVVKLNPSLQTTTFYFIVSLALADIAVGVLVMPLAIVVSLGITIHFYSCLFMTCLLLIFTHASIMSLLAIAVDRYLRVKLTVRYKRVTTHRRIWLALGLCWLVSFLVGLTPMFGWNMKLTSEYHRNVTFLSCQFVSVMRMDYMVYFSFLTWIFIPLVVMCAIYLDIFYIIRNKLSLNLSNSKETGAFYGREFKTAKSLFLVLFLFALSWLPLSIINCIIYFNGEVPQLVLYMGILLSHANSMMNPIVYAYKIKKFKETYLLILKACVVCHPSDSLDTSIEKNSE
Labelling: Ki reported below 2 µM becomes condition met; at or above becomes condition not met.

C[C@]12CC[C@@H]3c4ccc(OC(=O)c5ccccc5)cc4CC[C@H]3[C@@H]1CC[C@@H]2O [ESTRADIOL BENZOATE] : condition not met

[in] In the record for CN(C)c1ccc(C(=C2C=CC(=[N+](C)C)C=C2)c2ccc(N(C)C)cc2)cc1.[Cl-] , is Ki less than 2 µM?
[out] condition not met

----------
assay: DRUGMATRIX: Nicotinic Acetylcholine radioligand binding (ligand: [125I] Epibatidine); format: cell membranes, Membrane; conditions: imr-32; Not Active = under 50% inhibition at 10 µM
test readout: IC50

N=C(N)NC(=O)c1nc(Cl)c(N)nc1N [AMILORIDE] : Not Active
C=C1CC[C@H](O)C/C1=C/C=C1\CCC[C@]2(C)[C@@H]([C@H](C)CCCC(C)C)CC[C@@H]12 [CHOLECALCIFEROL] : Not Active
CCOC(=O)C(C)(C)Oc1ccc(Cl)cc1 [CLOFIBRATE] : Not Active
O=C1CCC(N2C(=O)c3ccccc3C2=O)C(=O)N1 (stereo unspecified) [THALIDOMIDE] : Not Active
C[C@]12CC[C@@H]3c4ccc(O)cc4CC[C@H]3[C@@H]1CC[C@@H]2O [ESTRADIOL] : Not Active

I would be grateful if you could provide IC50 for each of the following entries.
1. C[C@H]1O[C@@H](O[C@H]2[C@@H](O)C[C@H](O[C@H]3[C@@H](O)C[C@H](O[C@H]4CC[C@@]5(C)[C@H](CC[C@@H]6[C@@H]5CC[C@]5(C)[C@@H](C7=CC(=O)OC7)CC[C@]65O)C4)O[C@@H]3C)O[C@@H]2C)C[C@H](O)[C@@H]1O [DIGITOXIN]
2. CO[C@H]1/C=C/O[C@@]2(C)Oc3c(C)c(O)c4c(c3C2=O)C2=NC3(CCN(CC(C)C)CC3)NC2=C(NC(=O)/C(C)=C\C=C\[C@H](C)[C@H](O)[C@@H](C)[C@@H](O)[C@@H](C)[C@H](OC(C)=O)[C@@H]1C)C4=O [RIFABUTIN]

[out]
["Not Active", "Not Active"]

I would be grateful if you could provide IC50 for each of the following entries.
1. CC1=C(CC(=O)O)c2cc(F)ccc2/C1=C\c1ccc([S+](C)[O-])cc1 (stereo unspecified)
2. CN(C)/N=N/c1[nH]cnc1C(N)=O [DACARBAZINE]
3. COc1ccccc1C(=O)N1CCC(Cc2ccccc2)CC1
4. OC(CCN1CCCCC1)(c1ccccc1)C1CCCCC1 (stereo unspecified) [TRIHEXYPHENIDYL]
5. CC(C(=O)O)c1cccc(C(=O)c2ccccc2)c1 (stereo unspecified) [KETOPROFEN]
6. C#C[C@]1(OC(C)=O)CC[C@H]2[C@@H]3CCC4=CC(=O)CC[C@@H]4[C@H]3CC[C@@]21C [NORETHINDRONE ACETATE]
7. CCCC(CCC)C(=O)O [VALPROIC ACID]
8. CC(=O)Nc1ccc(O)cc1 [ACETAMINOPHEN]

[out]
1. Not Active
2. Not Active
3. Not Active
4. Not Active
5. Not Active
6. Not Active
7. Not Active
8. Not Active

----------
For each record, write down the corresponding pKi.
Molecular target: UniProtKB P04150
Sequence (P04150 whole entry): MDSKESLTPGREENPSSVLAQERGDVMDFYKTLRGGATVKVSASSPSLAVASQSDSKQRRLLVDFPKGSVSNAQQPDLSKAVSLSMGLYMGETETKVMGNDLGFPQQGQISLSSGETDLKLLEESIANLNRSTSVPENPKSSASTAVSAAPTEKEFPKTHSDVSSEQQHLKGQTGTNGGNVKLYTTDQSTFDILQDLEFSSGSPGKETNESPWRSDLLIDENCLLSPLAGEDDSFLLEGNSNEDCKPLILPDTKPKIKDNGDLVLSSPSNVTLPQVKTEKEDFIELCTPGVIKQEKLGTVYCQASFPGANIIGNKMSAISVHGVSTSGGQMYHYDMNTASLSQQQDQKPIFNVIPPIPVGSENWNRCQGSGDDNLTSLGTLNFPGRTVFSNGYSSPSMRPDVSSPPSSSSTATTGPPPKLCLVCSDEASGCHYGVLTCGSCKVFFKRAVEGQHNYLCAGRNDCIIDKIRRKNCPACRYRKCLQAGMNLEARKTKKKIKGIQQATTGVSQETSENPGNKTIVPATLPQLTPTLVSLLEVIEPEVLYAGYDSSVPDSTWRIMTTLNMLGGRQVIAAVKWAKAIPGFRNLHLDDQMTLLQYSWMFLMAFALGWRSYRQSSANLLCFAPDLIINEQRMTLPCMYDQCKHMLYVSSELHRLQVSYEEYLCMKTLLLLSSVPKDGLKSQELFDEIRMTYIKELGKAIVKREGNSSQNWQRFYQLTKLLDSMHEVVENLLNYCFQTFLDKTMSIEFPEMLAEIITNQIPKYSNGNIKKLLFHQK
Assay: biochemical
Give bare numbers, as −log10 of the molar value.

Some solved cases for reference:
CC1(C)O[C@@H]2C[C@H]3[C@@H]4C[C@H](F)C5=CC(=O)C=C[C@]5(C)[C@@]4(F)[C@@H](O)C[C@]3(C)[C@]2(C(=O)CO)O1 [FLUOCINOLONE ACETONIDE] : 8.85
CC1(C)O[C@@H]2C[C@H]3[C@@H]4C[C@H](F)C5=CC(=O)CC[C@]5(C)[C@H]4[C@@H](O)C[C@]3(C)[C@]2(C(=O)CO)O1 [FLURANDRENOLIDE] : 8.69

I would be grateful if you could provide pKi for each of the following entries.
1. CC1(C)O[C@@H]2C[C@H]3[C@@H]4C[C@H](F)C5=CC(=O)C=C[C@]5(C)[C@H]4[C@@H](O)C[C@]3(C)[C@]2(C(=O)CO)O1 [FLUNISOLIDE]
2. C[C@]12CC[C@@H]3c4ccc(OC(=O)c5ccccc5)cc4CC[C@H]3[C@@H]1CC[C@@H]2O [ESTRADIOL BENZOATE]
3. S=C=Nc1cccc2ccccc12 [1-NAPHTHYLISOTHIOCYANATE]
4. C#C[C@]1(OC(C)=O)CC[C@H]2[C@@H]3CCC4=CC(=O)CC[C@@H]4[C@H]3CC[C@@]21C [NORETHINDRONE ACETATE]

[out]
8.62
5.64
5.15
6.53
